Molecular target: Nuclear receptor subfamily 1 group I member 2 (Homo sapiens)
Test: CYP3A4 induction through human pregnane X receptor (PXR) by small molecules, qHTS assay (AID 1346984); further: nearly all actives have a fitted effect of over 40% in size
Conditions: DPX-2 HepG2 PXR, CYP3A4-luciferin luminescence, 24 h; series mostly up to 46.1 µM
Records with an inconclusive call do not appear. Activity calls are given as the source filed them. The call rests on the fitted dose curve; in most records, active means well fitted activation curve with a large enough effect in the repeat runs; inconclusive means weak or mixed curves; inactive means no such curve, though single readings can be large or run the other way.
The reply should name one outcome from active, inactive

Solved cases (5 shown):
>>> df
                               input_smiles     label
0     CN1CCc2cccc3c2[C@H]1Cc1ccc(O)c(O)c1-3    active
1  NC(=O)n1c(O)c(C(=O)c2cccs2)c2cc(Cl)ccc21    active
2           C[C@](N)(Cc1ccc(O)c(O)c1)C(=O)O  inactive
3  C=C1CC[C@H](O)C/C1=C\C=C1/CCC[C@]2(C)[C@@H]([C@H](C)CCCC(C)C)CC[C@@H]12  inactive
4                 CCCc1cc(=O)[nH]c(=S)[nH]1  inactive

Problem: Fill in: this test's call for CN(C)C(=O)Nc1ccc(Cl)c(Cl)c1 is ___
Result: inactive

Problem: CC(=O)CCC(=O)O , same question.
Result: inactive

Problem: CCCCCCCCCCCCCCCC[N+](C)(C)Cc1ccccc1 , same question.
Result: inactive

Problem: NC(=O)c1cccnc1 , same question.
Result: inactive
